Experiment: Hepatic Stability Assay (in vitro half-life method)
Type: in vitro ADME
Parameters: dose or concentration left out as unconfirmed
Details: pooled cryopreserved hepatocytes, 37° C., 1×10^6 cells/mL, 0-6 hours, LC-MS/MS, 39.5 hours is the maximum detectable half life, read-out: t½ (converted)
For each record, check the reported half-life: if it is below 4 h write y, else write n.

Use these answered entries as a reference point.
{"MOLECULE": "C#CC1(NC(=O)C(=O)c2c(C)c(C(=O)Nc3cc(F)c(F)c(F)c3)n3c2CCC3)CC1 [Example 92]", "CLASSIFICATION": "y"}
{"MOLECULE": "Cc1c(C(=O)C(=O)NC2(c3c[nH]nn3)CC2)c2n(c1C(=O)Nc1cc(Cl)c(F)cc1F)CCC2 [Example 91]", "CLASSIFICATION": "n"}
{"MOLECULE": "Cc1c(C(=O)C(=O)NC2(c3c[nH]nn3)CC(F)(F)C2)c2n(c1C(=O)Nc1ccnc(C(F)F)c1F)[C@@H]1C[C@@H]1C2 [Example 80]", "CLASSIFICATION": "n"}

Dear colleague, could you confirm whether half-life of Cc1c(C(=O)C(=O)NC2(c3nncs3)CC2)c2n(c1C(=O)Nc1cc(F)c(F)c(F)c1)[C@@H]1C[C@@H]1C2 [Example 57] falls below 4 h? Thanks. n

Dear colleague, could you confirm whether half-life of Cc1c(C(=O)C(=O)NC2(c3ccccc3)CC2)c2n(c1C(=O)Nc1ccc(F)c(Cl)c1)CCC2 [Example 66] falls below 4 h? Thanks. y

Dear colleague, could you confirm whether half-life of Cc1c(C(=O)C(=O)NC2(c3c[nH]nn3)CC(F)(F)C2)c2n(c1C(=O)Nc1ccc(F)c(Cl)c1)[C@@H]1C[C@@H]1C2 [Example 39] falls below 4 h? Thanks. n

Dear colleague, could you confirm whether half-life of Cc1c(C(=O)C(=O)NC2(c3c[nH]nn3)CC2)c2n(c1C(=O)Nc1cccc(Cl)c1F)CCC2 [Example 107] falls below 4 h? Thanks. n

###

Assay: Hepatic Stability Assay (in vitro half-life method)
Format: in vitro ADME
Design: dose or concentration left out as unconfirmed
Settings: pooled cryopreserved hepatocytes, 37° C., 1×10^6 cells/mL, 0-6 hours, LC-MS/MS, 39.5 hours is the maximum detectable half life, read-out: t½ (converted)
Overview of recorded half-life for various compounds
Write the number in h without appending the unit.

{"COMPOUND": "CNC(=O)C1(NC(=O)C(=O)c2c(C)c(C(=O)Nc3ccc(F)c(Cl)c3)n3c2[C@@H]2C[C@@H]2C3)CC(F)(F)C1 [Example 33]", "MEASURE": "half-life", "UNIT_NAME": "h", "MEASURED_VALUE": 4.3}

Per the records, this compound ( CNC(=O)C1(NC(=O)C(=O)c2c(C)c(C(=O)Nc3ccc(F)cc3)n3c2C[C@H]2C[C@H]23)CC(F)(F)C1 [Example 95] ) has half-life equal to 28.8

Per the records, this compound ( CNC(=O)C1(NC(=O)C(=O)c2c(C)c(C(=O)Nc3ccc(F)c(Cl)c3F)n3c2CCC3)CC(F)(F)C1 [Example 127] ) has half-life equal to 15.2

Per the records, this compound ( Cc1c(C(=O)C(=O)NC2(C(N)=O)CC(F)(F)C2)c2n(c1C(=O)Nc1ccc(F)c(F)c1)CCC2 [Example 121] ) has half-life equal to 19.8
